molecular target: human TMEM16A (TMEM16Aabc variant) (Homo sapiens, UniProt Q5XXA6); construct: human TMEM16A (TMEM16Aabc variant); test: Automated whole-cell patch clamp (QPatch) TMEM16A potentiator assay in FRT cells stably expressing human TMEM16A; type: cell-based; conditions: 3.3 μM test compound; percentage increase of baseline TMEM16A current
Quantity name: QPatch TMEM16A % Potentation @ 3.3 μM
The number alone won't do; follow it with the unit.

# count of solved cases: 4
O=C(Cc1cc2[nH]ncc2cc1F)Nc1ccnc(C(=O)NC2(C(F)(F)F)CC2)c1; 153%
CC(C)(C)NC(=O)c1cc(NC(=O)Cc2ccc3c(C(F)(F)F)n[nH]c3c2)ccn1; 98%
C#CC(C)(C)NC(=O)c1cc(NC(=O)Cc2ccc3cn[nH]c3c2)ccn1; 96%
CC(C)(C)NC(=O)c1cc(NC(=O)Cc2ccc3cn[nH]c3c2)ccn1; 131%

Moving on to another compound below.
Input: Returns the measured QPatch TMEM16A % Potentation @ 3.3 μM for the input compound. Input: O=C(Cc1cc(Cl)c2cn[nH]c2c1)Nc1ccnc(C(=O)NC2(C(F)(F)F)CC2)c1
Output: 220%

====

Biological target: human TMEM16A (TMEM16Aabc variant) (Homo sapiens, UniProt Q5XXA6)
Construct: human TMEM16A (TMEM16Aabc variant)
Sequence (Q5XXA6 1-986): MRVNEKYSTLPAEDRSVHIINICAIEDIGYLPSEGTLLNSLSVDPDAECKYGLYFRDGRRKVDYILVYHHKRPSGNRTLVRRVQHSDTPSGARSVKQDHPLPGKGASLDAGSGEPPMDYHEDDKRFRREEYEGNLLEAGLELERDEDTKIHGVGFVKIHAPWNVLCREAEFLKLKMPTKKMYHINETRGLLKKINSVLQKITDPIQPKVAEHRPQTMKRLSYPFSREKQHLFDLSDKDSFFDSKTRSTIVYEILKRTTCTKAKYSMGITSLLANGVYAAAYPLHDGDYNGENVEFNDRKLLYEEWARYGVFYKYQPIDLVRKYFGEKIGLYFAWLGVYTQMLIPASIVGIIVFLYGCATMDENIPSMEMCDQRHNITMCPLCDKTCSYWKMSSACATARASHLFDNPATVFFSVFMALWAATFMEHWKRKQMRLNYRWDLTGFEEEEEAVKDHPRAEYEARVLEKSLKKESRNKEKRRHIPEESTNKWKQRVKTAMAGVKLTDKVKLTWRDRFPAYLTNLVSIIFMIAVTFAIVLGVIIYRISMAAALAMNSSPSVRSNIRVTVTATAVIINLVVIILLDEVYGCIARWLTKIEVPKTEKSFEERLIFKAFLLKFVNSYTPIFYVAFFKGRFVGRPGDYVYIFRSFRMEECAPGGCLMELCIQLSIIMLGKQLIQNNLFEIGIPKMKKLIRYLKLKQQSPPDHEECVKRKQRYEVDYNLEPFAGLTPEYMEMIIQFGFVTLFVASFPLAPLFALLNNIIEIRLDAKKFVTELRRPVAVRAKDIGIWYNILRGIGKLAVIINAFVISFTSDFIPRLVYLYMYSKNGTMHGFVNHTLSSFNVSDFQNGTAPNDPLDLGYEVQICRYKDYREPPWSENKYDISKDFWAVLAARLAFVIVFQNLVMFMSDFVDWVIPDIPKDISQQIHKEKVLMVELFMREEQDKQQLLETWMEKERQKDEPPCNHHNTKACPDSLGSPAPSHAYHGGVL
Test: Automated whole-cell patch clamp (QPatch) TMEM16A potentiator assay in FRT cells stably expressing human TMEM16A
Type: cell-based
Details: 370 nM test compound; percentage increase of baseline TMEM16A current
Answer each item with its documented QPatch TMEM16A % Potentiation @ 370 nM.
One number for each entry, in %.

O=C(Cc1ccc2c(C(F)(F)F)n[nH]c2c1)Nc1ccnc(C(=O)NC2(C(F)(F)F)CC2)c1 [Example 8.1]; 97
C#CC(C)(C)NC(=O)c1cc(NC(=O)Cc2cccc3[nH]ncc23)ccn1 [Compound A, reference compound]; 43
O=C(Cc1cc2[nH]ncc2cc1F)Nc1ccnc(C(=O)NC2CCCC2(F)F)c1 (stereo not drawn) [Example 6.2]; 46
O=C(Cc1ccc2cn[nH]c2c1)Nc1ccnc(C(=O)NC2(C(F)F)CC2)c1 [Example 11.4]; 85

Hey, can you go through the list below and give me QPatch TMEM16A % Potentiation @ 370 nM for every item?
1. O=C(Cc1cc(Cl)c2cn[nH]c2c1)Nc1ccnc(C(=O)NC2(C(F)(F)F)CC2)c1 [Example 6.3]
2. CC1(NC(=O)c2cc(NC(=O)Cc3ccc4cc[nH]c4c3)ccn2)CC(F)(F)C1 [Example 13.1]
3. CC(C)(C)NC(=O)c1cc(NC(=O)Cc2cc3[nH]ncc3cc2Cl)ccn1 [Example 7.1]
4. CC(C)(C)NC(=O)c1cc(NC(=O)Cc2cc(Cl)c3cn[nH]c3c2)ccn1 [Example 7.2]
5. O=C(Cc1ccc2cn[nH]c2c1)Nc1ccnc(C(=O)NC2(C(F)(F)F)CC2)c1 [Example 4.2]
6. CC(C)(C)NC(=O)c1cc(NC(=O)Cc2ccc3cn[nH]c3c2)ccn1 [Example 2]

Output:
1: 172; 2: 113; 3: 47; 4: 102; 5: 112; 6: 87

Hey, can you go through the list below and give me QPatch TMEM16A % Potentiation @ 370 nM for every item?
1. CC(C)(NC(=O)c1cc(NC(=O)Cc2ccc3cn[nH]c3c2)ccn1)C(F)F [Example 5]
2. CC(C)(C)NC(=O)c1cc(NC(=O)Cc2cc3[nH]ncc3cc2F)ccn1 [Example 6]
3. C#CC(C)(C)NC(=O)c1cc(NC(=O)Cc2ccc3cn[nH]c3c2)ccn1 [Example 3]
4. C#CC1(NC(=O)c2cc(NC(=O)Cc3ccc4cn[nH]c4c3)ccn2)CCCC1 [Example 4]
5. O=C(Cc1cc2[nH]ncc2cc1F)Nc1ccnc(C(=O)NC2(C(F)(F)F)CC2)c1 [Example 6.1]

Output:
1: 80; 2: 91; 3: 68; 4: 96; 5: 107

====

Answer each item with its documented QPatch TMEM16A % Potentiation @ 370 nM.
target: human TMEM16A (TMEM16Aabc variant) (Homo sapiens); construct: human TMEM16A (TMEM16Aabc variant); test: Automated whole-cell patch clamp (QPatch) TMEM16A potentiator assay in FRT cells stably expressing human TMEM16A; assay type: cell-based; conditions: 370 nM test compound; percentage increase of baseline TMEM16A current
One number for each entry, in %.

C#CC(C)(C)NC(=O)c1cc(NC(=O)Cc2ccc3cc[nH]c3c2)ccn1; 50
O=C(Cc1ccc2cn[nH]c2c1)Nc1ccnc(C(=O)NC2(C(F)(F)F)COC2)c1; 117

Moving on to another compound below.
Input: Form: Entry = N#CC1(NC(=O)c2cc(NC(=O)Cc3ccc4cc[nH]c4c3)ccn2)CCOCC1 | System = human TMEM16A (TMEM16Aabc variant) (Homo sapiens) | QPatch TMEM16A % Potentiation @ 370 nM = ____
Output: 98
